targetOrSystem: UniProtKB O00329
methodDescription: PI3K binding assay (Ki), PI3K delta
studyConditions: ratio in brackets, Ki delta over Ki alpha
Assignment: determine reported (δ/α) for the given compounds.
Reply with the value as a number alone.

Exercise: Note down (δ/α) recorded for `CS(=O)(=O)N1CCN(Cc2cc3nc(-c4cccc5[nH]ncc45)nc(N4CCOCC4)c3s2)CC1`
Key: 1

Exercise: Input `CC(C)n1ncnc1-c1cn2c(n1)-c1ccc(O[C@@H](C)C(N)=O)cc1OCC2` , output reported (δ/α).
Key: 20

Exercise: // fetch (δ/α) given entry `CC(C)n1ncnc1-c1cn2c(n1)-c1cnc(N3CCC[C@H]3C(N)=O)cc1OCC2`
Key: 27

Exercise: # return recorded (δ/α) for input `Cc1nc(-c2cn3c(n2)-c2ccc(-c4cnn(C(C)(C)C(N)=O)c4)cc2OCC3)n(C(C)C)n1`
Key: 0.36

====

methodDescription: Clinical pharmacokinetics from patient samples
studyConditions: human, in vivo; measured from patient samples; read-out: clinical pharmacokinetic half-life (converted)
metricName: half-life

Exercise: Give half-life for `Cc1nc(-c2cn3c(n2)-c2ccc(-c4cnn(C(C)(C)C(N)=O)c4)cc2OCC3)n(C(C)C)n1`
Key: ~40 h

====

Task for the reader: assign each of the following compounds its reported (β/α).
targetOrSystem: UniProt P42338
methodDescription: PI3K binding assay (Ki), PI3K beta
studyConditions: ratio in brackets, Ki beta over Ki alpha
Experimental: The compound was serially diluted in 100% DMSO. The kinase reaction was incubated for 1 h at room temperature, and the reaction was terminated by the addition of PBS. IC50 values were subsequently determined using sigmoidal dose-response curve fit (variable slope).
# answer = number (no unit)

Exercise: Entry `CC(C)n1ncnc1-c1cn2c(n1)-c1ccc(O[C@@H](C)C(N)=O)cc1OCC2` needs its (β/α) filled in; supply it.
Key: 133

Exercise: Return the recorded (β/α) value; entry: `CS(=O)(=O)N1CCN(Cc2cc3nc(-c4cccc5[nH]ncc45)nc(N4CCOCC4)c3s2)CC1`
Key: 11

Exercise: Provide one value: measured (β/α) of `CC(C)n1ncnc1-c1cn2c(n1)-c1cnc(N3CCC[C@H]3C(N)=O)cc1OCC2`
Key: 282

Exercise: // Input: `Cc1nc(-c2cn3c(n2)-c2ccc(-c4cnn(C(C)(C)C(N)=O)c4)cc2OCC3)n(C(C)C)n1` . Output its (β/α) only.
Key: 31

====

metricName: Ki

Exercise: Report its Ki with PI3K β (Homo sapiens) as the test system: CC(C)n1ncnc1-c1cn2c(n1)-c1cnc(N3CCC[C@H]3C(N)=O)cc1OCC2 [Compound G-102]
Sequence (P42338 whole entry): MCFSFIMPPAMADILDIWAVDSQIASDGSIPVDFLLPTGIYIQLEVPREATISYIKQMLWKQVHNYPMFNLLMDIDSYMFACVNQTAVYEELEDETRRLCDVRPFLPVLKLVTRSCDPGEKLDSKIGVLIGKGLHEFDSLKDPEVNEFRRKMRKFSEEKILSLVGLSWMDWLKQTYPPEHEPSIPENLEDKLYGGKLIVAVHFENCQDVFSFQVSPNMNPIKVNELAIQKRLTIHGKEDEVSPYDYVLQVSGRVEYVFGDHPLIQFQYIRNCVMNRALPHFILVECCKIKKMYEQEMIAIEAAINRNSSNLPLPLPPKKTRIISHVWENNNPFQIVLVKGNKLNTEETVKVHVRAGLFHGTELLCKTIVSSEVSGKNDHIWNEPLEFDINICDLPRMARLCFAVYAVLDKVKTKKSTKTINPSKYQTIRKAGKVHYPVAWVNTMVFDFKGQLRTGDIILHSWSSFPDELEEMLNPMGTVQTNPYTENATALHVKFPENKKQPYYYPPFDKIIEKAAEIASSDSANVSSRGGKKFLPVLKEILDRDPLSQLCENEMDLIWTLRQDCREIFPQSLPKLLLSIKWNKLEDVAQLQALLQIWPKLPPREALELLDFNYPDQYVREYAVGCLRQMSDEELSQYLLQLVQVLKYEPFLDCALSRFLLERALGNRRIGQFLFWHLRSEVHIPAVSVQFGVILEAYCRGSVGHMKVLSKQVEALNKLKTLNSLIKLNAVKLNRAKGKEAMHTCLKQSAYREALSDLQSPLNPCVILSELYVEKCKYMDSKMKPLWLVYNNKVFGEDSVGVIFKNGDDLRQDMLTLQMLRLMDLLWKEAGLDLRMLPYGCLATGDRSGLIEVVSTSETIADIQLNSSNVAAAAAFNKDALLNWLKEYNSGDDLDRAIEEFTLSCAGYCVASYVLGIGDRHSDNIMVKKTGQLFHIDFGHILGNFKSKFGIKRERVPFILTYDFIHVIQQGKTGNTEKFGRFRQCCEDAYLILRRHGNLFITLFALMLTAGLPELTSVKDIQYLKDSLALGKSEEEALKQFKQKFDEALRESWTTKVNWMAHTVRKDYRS
Sequence (P27986 whole entry partner): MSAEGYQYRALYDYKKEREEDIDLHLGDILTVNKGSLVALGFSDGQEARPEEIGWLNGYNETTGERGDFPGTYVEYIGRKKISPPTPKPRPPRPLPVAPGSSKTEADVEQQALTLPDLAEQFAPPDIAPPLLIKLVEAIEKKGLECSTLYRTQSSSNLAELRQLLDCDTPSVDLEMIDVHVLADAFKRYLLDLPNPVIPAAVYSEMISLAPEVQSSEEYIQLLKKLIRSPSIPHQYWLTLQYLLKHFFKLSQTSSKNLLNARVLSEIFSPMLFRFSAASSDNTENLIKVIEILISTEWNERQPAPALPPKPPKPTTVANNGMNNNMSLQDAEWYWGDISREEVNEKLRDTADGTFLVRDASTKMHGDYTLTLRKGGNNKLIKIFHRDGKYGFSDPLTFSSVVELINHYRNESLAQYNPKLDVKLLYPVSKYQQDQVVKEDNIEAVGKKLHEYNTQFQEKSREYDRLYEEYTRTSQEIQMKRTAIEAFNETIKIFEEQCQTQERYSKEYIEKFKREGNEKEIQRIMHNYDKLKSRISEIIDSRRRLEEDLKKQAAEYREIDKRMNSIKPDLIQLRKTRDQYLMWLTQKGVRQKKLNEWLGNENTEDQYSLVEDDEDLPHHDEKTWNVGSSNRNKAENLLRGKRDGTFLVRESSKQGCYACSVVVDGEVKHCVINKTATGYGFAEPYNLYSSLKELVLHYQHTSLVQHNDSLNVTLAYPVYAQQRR
Key: 39.7 nM

Exercise: Print PI3K β (Homo sapiens) Ki for CC(C)n1ncnc1-c1cn2c(n1)-c1ccc(O[C@@H](C)C(N)=O)cc1OCC2 [GDC-0326] .
Key: 31 nM

====

methodDescription: in vivo
studyConditions: female, mouse, po
metricName: MTD at 21 days (mg/kg)
// units = mg/kg; emit number, no label

Exercise: Item `Cc1nc(-c2cn3c(n2)-c2ccc(-c4cnn(C(C)(C)C(N)=O)c4)cc2OCC3)n(C(C)C)n1` : provide MTD at 21 days
Key: 25

====

System: PC3
methodDescription: In vitro cell proliferation assay, PC3
Assay type: cell-based
studyConditions: Homo sapiens, PC-3
metricName: pIC50
Conceptually, pIC50 converts a concentration in mol/L into minus its log10.

Exercise: For the molecule `CC(C)n1ncnc1-c1cn2c(n1)-c1cnc(N3CCC[C@H]3C(N)=O)cc1OCC2` , give its measured pIC50 value.
Key: 5.80

====

targetOrSystem: PI3K δ (Homo sapiens)
Sequence (O00329 whole entry): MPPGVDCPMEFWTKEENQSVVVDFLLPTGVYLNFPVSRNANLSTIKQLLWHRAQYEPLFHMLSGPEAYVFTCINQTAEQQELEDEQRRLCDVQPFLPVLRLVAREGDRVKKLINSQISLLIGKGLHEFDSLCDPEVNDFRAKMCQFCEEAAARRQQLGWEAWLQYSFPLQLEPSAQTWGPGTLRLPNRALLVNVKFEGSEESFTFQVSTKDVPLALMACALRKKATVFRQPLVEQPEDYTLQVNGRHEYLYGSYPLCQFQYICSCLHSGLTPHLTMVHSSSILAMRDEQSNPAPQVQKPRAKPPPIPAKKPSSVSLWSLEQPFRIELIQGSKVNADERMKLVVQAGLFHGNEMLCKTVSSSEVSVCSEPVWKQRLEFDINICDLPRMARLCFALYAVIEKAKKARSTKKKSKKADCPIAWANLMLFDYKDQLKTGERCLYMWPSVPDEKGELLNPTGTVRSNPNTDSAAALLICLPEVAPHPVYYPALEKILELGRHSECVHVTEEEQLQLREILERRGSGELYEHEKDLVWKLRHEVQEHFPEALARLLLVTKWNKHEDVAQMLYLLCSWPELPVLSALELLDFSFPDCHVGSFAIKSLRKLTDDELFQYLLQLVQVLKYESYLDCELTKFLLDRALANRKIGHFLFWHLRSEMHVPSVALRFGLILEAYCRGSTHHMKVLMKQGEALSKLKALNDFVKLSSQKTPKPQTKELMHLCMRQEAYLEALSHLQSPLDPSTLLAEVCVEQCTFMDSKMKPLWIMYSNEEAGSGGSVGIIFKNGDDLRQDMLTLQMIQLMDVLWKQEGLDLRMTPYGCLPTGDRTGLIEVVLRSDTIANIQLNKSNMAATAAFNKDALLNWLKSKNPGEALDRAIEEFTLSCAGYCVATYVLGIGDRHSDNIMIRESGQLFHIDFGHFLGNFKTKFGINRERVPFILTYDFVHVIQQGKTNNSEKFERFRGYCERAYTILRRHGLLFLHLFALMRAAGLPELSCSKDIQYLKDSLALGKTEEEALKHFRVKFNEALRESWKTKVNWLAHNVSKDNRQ
Sequence (P27986 whole entry partner): as the sequence (P27986 whole entry partner) above
methodDescription: PI3K binding assay (Ki), PI3K delta
metricName: pKi
As a rule, pKi stands for the negative log10 of the concentration, concentration in M.

Exercise: Identify measured pKi corresponding to `CC(C)n1ncnc1-c1cn2c(n1)-c1cnc(N3CCC[C@H]3C(N)=O)cc1OCC2`
Key: 8.43

Exercise: Read the entry `CC(C)n1ncnc1-c1cn2c(n1)-c1ccc(O[C@@H](C)C(N)=O)cc1OCC2` and write its reported pKi.
Key: 8.32

====

metricName: Ki (nM)
Quick reminder: number only, in nM, skip the unit.

Exercise: Give reported Ki for `CC(C)n1ncnc1-c1cn2c(n1)-c1cnc(N3CCC[C@H]3C(N)=O)cc1OCC2` (wt-PI3K α (Homo sapiens, UniProt P42336))
Key: 0.14
